B1: glmS ribozyme (parent)
chain: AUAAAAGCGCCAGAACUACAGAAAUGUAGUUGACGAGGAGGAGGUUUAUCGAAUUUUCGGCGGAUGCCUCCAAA

variants of: B1; test: self-cleavage kobs at 10000 uM GlcN6P; higher = faster cleavage; RNA array; conditions: with glucosamine-6-phosphate
Fewer inactive variants are shown than the library holds.
METRIC: self-cleavage kobs at 10000 uM GlcN6P

Some entries whose results are on file:
>>> assay_value("G7U U31A")
"< 1e-05 s⁻¹"
>>> assay_value("C34G G41C")
"< 1e-05 s⁻¹"

In plain terms, U30G G38U A39U G66A has a documented self-cleavage kobs at 10000 uM GlcN6P of < 1e-05 s⁻¹

The reported value for G37A G60U in terms of self-cleavage kobs at 10000 uM GlcN6P is < 1e-05 s⁻¹

Field self-cleavage kobs at 10000 uM GlcN6P (entry C19A G43C U47G ) reads < 1e-05 s⁻¹

Value of self-cleavage kobs at 10000 uM GlcN6P reported for the variant A52C G59A is < 1e-05 s⁻¹

The variant listed as G44C C68A shows self-cleavage kobs at 10000 uM GlcN6P equal to < 1e-05 s⁻¹

For reference, reported self-cleavage kobs at 10000 uM GlcN6P for A42C G60U stands at < 1e-05 s⁻¹

Consider A33C G41C U47C A53G U54C U65G C70U . Its measured self-cleavage kobs at 10000 uM GlcN6P is < 1e-05 s⁻¹

Consider A14U U45G C61U . Its measured self-cleavage kobs at 10000 uM GlcN6P is < 1e-05 s⁻¹

Consider G59C C71U . Its measured self-cleavage kobs at 10000 uM GlcN6P is < 1e-05 s⁻¹

What the record says about G32C A64C : self-cleavage kobs at 10000 uM GlcN6P is < 1e-05 s⁻¹

// sample G7U A42G , its self-cleavage kobs at 10000 uM GlcN6P was < 1e-05 s⁻¹
